- Tested on: solid tumor cell lines
- experiment_notes: 3-day proliferation assay (CellTiter-Glo)
- Format: cell-based, human
- recorded_conditions: Homo sapiens, PL45, PL45, Pancreas
endpoint_label: IC50 (µM)

| compound_smiles | endpoint_label | unit_of_measure | test_value |
| --- | --- | --- | --- |
| Cn1ncc(Cl)c1-c1cc(C(=O)N[C@H](CN)Cc2ccc(F)c(F)c2)oc1Cl | IC50 | µM | 6.1 |
| Cn1ncc(Cl)c1-c1cc(C(=O)N[C@H](CN)Cc2cccc(F)c2)sc1Cl | IC50 | µM | 6.98 |

###

Here the recorded IC50 is given for each entry.
- assay_target: PKCγ (Homo sapiens, UniProt P05129)
- experiment_notes: Kinase IC50 assay
- Format: biochemical

| compound_smiles | unit_of_measure | value_modifier | IC50 |
| --- | --- | --- | --- |
| Cn1ncc(Cl)c1-c1cc(C(=O)N[C@H](CN)Cc2ccc(F)c(F)c2)oc1Cl | nM | = | 200 |
| Cn1ncc(Cl)c1-c1cc(C(=O)N[C@H](CN)Cc2cccc(F)c2)sc1Cl | nM | > | 1000 |

###

Recorded pIC50, one value per entry.
- Test system: solid tumor cell lines
- experiment_notes: 3-day proliferation assay (CellTiter-Glo)
- Format: cell-based, human
- recorded_conditions: Homo sapiens, RD, Sarcoma
pIC50: −log10 of the molar value.

| compound | assay_target | pIC50 |
| --- | --- | --- |
| Cn1ncc(Cl)c1-c1cc(C(=O)N[C@H](CN)Cc2cccc(F)c2)sc1Cl [GSK2110183] | solid tumor cell lines | 4.95 |
| Cn1ncc(Cl)c1-c1cc(C(=O)N[C@H](CN)Cc2ccc(F)c(F)c2)oc1Cl [GSK2141795] | solid tumor cell lines | 5.20 |

###

- Tested on: hematological tumor cell lines
- experiment_notes: 3-day proliferation assay (CellTiter-Glo)
- Assay type: cell-based, human
- recorded_conditions: Homo sapiens, HSB2, HSB2 cell line; ALL; T Cell
pIC50: −log10 of the molar value.

| compound_smiles | pIC50 |
| --- | --- |
| Cn1ncc(Cl)c1-c1cc(C(=O)N[C@H](CN)Cc2ccc(F)c(F)c2)oc1Cl | 6.24 |
| Cn1ncc(Cl)c1-c1cc(C(=O)N[C@H](CN)Cc2cccc(F)c2)sc1Cl | 5.27 |

###

- Tested on: hematological tumor cell lines
- experiment_notes: 3-day proliferation assay (CellTiter-Glo)
- Format: cell-based, human
- recorded_conditions: Homo sapiens, MEC1, MEC1 cell line; CLL; B Cell
pIC50: −log10 of the molar value.

| compound_smiles | pIC50 |
| --- | --- |
| Cn1ncc(Cl)c1-c1cc(C(=O)N[C@H](CN)Cc2ccc(F)c(F)c2)oc1Cl | 6.77 |

###

- assay_target: PKCβ2 (Homo sapiens, UniProt P05771)
- Sequence (P05771 1-673 isoform P05771-2): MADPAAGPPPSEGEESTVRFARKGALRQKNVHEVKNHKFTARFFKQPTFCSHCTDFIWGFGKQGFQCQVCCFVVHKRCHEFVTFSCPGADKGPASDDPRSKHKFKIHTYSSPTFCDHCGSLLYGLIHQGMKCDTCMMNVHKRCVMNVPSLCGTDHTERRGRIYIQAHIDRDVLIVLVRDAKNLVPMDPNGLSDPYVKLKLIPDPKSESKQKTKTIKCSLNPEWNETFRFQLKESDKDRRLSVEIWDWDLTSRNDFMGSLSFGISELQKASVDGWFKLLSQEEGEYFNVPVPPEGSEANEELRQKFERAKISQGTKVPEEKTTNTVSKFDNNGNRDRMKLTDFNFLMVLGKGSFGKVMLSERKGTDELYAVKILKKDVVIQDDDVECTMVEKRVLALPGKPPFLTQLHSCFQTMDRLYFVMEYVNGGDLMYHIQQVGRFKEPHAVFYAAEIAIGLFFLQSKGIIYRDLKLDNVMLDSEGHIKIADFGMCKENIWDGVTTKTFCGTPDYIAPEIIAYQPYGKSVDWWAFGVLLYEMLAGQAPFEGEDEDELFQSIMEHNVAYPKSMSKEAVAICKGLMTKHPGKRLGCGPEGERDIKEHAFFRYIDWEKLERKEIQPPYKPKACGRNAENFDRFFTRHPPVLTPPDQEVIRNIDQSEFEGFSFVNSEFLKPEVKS
- experiment_notes: Kinase IC50 assay
- Assay type: biochemical
endpoint_label: IC50

| compound_smiles | test_value |
| --- | --- |
| Cn1ncc(Cl)c1-c1cc(C(=O)N[C@H](CN)Cc2cccc(F)c2)sc1Cl | > 1000 nM |

###

- Test system: hematological tumor cell lines
- experiment_notes: 3-day proliferation assay (CellTiter-Glo)
- Assay type: cell-based, human
- recorded_conditions: Homo sapiens, RS4-11, RS4;11 cell line; ALL; B Cell
Reported IC50 values are given for each entry in this list.

| molecule | unit_of_measure | IC50 |
| --- | --- | --- |
| Cn1ncc(Cl)c1-c1cc(C(=O)N[C@H](CN)Cc2ccc(F)c(F)c2)oc1Cl [GSK2141795] | nM | 177 |
| Cn1ncc(Cl)c1-c1cc(C(=O)N[C@H](CN)Cc2cccc(F)c2)sc1Cl [GSK2110183] | nM | 539 |

###

- System: hematological tumor cell lines
- experiment_notes: 3-day proliferation assay (CellTiter-Glo)
- Assay type: cell-based, human
- recorded_conditions: Homo sapiens, NOMO-1, Nomo-1 cell line; AML; B Cell
# maps each entry to its IC50
endpoint_label: IC50

| compound_smiles | endpoint_label | test_value |
| --- | --- | --- |
| Cn1ncc(Cl)c1-c1cc(C(=O)N[C@H](CN)Cc2cccc(F)c2)sc1Cl | IC50 | 104 nM |
| Cn1ncc(Cl)c1-c1cc(C(=O)N[C@H](CN)Cc2ccc(F)c(F)c2)oc1Cl | IC50 | 48 nM |

###

- Test system: hematological tumor cell lines
- experiment_notes: 3-day proliferation assay (CellTiter-Glo)
- Type: cell-based, human
- recorded_conditions: Homo sapiens, Daudi, DAUDI cell line; Burkitt's Lymphoma; B Cell
pIC50: −log10 of the molar value.
Catalogue of pIC50 readings, one per entry.

| compound_smiles | pIC50 |
| --- | --- |
| Cn1ncc(Cl)c1-c1cc(C(=O)N[C@H](CN)Cc2cccc(F)c2)sc1Cl | 6.36 |
| Cn1ncc(Cl)c1-c1cc(C(=O)N[C@H](CN)Cc2ccc(F)c(F)c2)oc1Cl | 6.57 |

###

- Test system: solid tumor cell lines
- experiment_notes: 3-day proliferation assay (CellTiter-Glo)
- Assay type: cell-based, human
- recorded_conditions: Homo sapiens, Caov-3, CAOV3, Ovary
pIC50: −log10 of the molar value.
Listing: pIC50 of selected molecules
endpoint_label: pIC50

| molecule | test_value |
| --- | --- |
| Cn1ncc(Cl)c1-c1cc(C(=O)N[C@H](CN)Cc2cccc(F)c2)sc1Cl [GSK2110183] | 5.21 |
| Cn1ncc(Cl)c1-c1cc(C(=O)N[C@H](CN)Cc2ccc(F)c(F)c2)oc1Cl [GSK2141795] | 5.37 |

###

# reported pIC50; entries follow
- Test system: hematological tumor cell lines
- experiment_notes: 3-day proliferation assay (CellTiter-Glo)
- Assay type: cell-based, human
- recorded_conditions: Homo sapiens, L-428, L428 cell line; Hodgkin's Lymphoma; Unspecified
pIC50: −log10 of the molar value.

| molecule | pIC50 |
| --- | --- |
| Cn1ncc(Cl)c1-c1cc(C(=O)N[C@H](CN)Cc2cccc(F)c2)sc1Cl [GSK2110183] | 8.87 |
| Cn1ncc(Cl)c1-c1cc(C(=O)N[C@H](CN)Cc2ccc(F)c(F)c2)oc1Cl [GSK2141795] | 8.92 |

###

- Test system: solid tumor cell lines
- experiment_notes: 3-day proliferation assay (CellTiter-Glo)
- Assay type: cell-based, human
- recorded_conditions: Homo sapiens, NCI-H358, NCI-H358, Lung
IC50 listing for selected compounds.

| compound_smiles | assay_target | unit_of_measure | IC50 |
| --- | --- | --- | --- |
| Cn1ncc(Cl)c1-c1cc(C(=O)N[C@H](CN)Cc2cccc(F)c2)sc1Cl | solid tumor cell lines | µM | 1.93 |
| Cn1ncc(Cl)c1-c1cc(C(=O)N[C@H](CN)Cc2ccc(F)c(F)c2)oc1Cl | solid tumor cell lines | µM | 0.635 |

###

Documented IC50 across a set of compounds
- assay_target: PKCζ (Homo sapiens, UniProt Q05513)
- Sequence (Q05513 whole entry): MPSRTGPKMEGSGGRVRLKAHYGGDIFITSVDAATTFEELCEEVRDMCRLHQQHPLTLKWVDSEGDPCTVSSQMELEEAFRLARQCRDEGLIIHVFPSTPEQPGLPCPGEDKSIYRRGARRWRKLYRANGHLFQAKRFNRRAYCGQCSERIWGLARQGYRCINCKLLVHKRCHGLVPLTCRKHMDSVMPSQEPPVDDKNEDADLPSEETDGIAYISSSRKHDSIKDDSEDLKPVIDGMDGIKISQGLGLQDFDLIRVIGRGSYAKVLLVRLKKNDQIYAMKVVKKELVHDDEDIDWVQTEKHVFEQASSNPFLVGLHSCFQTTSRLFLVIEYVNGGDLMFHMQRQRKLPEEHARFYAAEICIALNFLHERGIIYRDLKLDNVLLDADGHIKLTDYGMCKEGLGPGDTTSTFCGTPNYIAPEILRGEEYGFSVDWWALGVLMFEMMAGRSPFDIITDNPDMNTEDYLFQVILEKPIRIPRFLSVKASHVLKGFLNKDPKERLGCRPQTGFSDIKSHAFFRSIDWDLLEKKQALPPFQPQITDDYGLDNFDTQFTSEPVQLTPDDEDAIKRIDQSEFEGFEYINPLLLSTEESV
- experiment_notes: Kinase IC50 assay
- Assay type: biochemical

| compound | IC50 |
| --- | --- |
| Cn1ncc(Cl)c1-c1cc(C(=O)N[C@H](CN)Cc2cccc(F)c2)sc1Cl [GSK2110183] | > 1000 nM |
| Cn1ncc(Cl)c1-c1cc(C(=O)N[C@H](CN)Cc2ccc(F)c(F)c2)oc1Cl [GSK2141795] | > 1000 nM |

###

Recorded IC50 values for a group of compounds are listed next.
- System: solid tumor cell lines
- experiment_notes: 3-day proliferation assay (CellTiter-Glo)
- Type: cell-based, human
- recorded_conditions: Homo sapiens, UACC-257, UACC257, Skin

| compound | IC50, µM |
| --- | --- |
| Cn1ncc(Cl)c1-c1cc(C(=O)N[C@H](CN)Cc2ccc(F)c(F)c2)oc1Cl [GSK2141795] | 2.99 |
| Cn1ncc(Cl)c1-c1cc(C(=O)N[C@H](CN)Cc2cccc(F)c2)sc1Cl [GSK2110183] | 5.26 |

###

- Tested on: solid tumor cell lines
- experiment_notes: 3-day proliferation assay (CellTiter-Glo)
- Assay type: cell-based, human
- recorded_conditions: Homo sapiens, NCI-H209, NCI-H209, Lung
pIC50: −log10 of the molar value.
endpoint_label: pIC50

| compound_smiles | endpoint_label | test_value |
| --- | --- | --- |
| Cn1ncc(Cl)c1-c1cc(C(=O)N[C@H](CN)Cc2ccc(F)c(F)c2)oc1Cl | pIC50 | 6.07 |
| Cn1ncc(Cl)c1-c1cc(C(=O)N[C@H](CN)Cc2cccc(F)c2)sc1Cl | pIC50 | 5.35 |

###

- Test system: hematological tumor cell lines
- experiment_notes: 3-day proliferation assay (CellTiter-Glo)
- Type: cell-based, human
- recorded_conditions: Homo sapiens, SR, SR cell line; Non-Hodgkin's Lymphoma; Lymphoblast
Here, each record is paired with measured IC50 data.
endpoint_label: IC50 (nM)

| compound_smiles | endpoint_label | test_value |
| --- | --- | --- |
| Cn1ncc(Cl)c1-c1cc(C(=O)N[C@H](CN)Cc2ccc(F)c(F)c2)oc1Cl | IC50 | 1960 |
| Cn1ncc(Cl)c1-c1cc(C(=O)N[C@H](CN)Cc2cccc(F)c2)sc1Cl | IC50 | 2510 |
